Sourced from patent US20250289893A1

target: T1, human CD1c expressed on HEK-293 cells (human, UniProt P29017 18-333; P61769 21-119); experiment: flow cytometry, HEK-293 cells, 0.1 µg/ml antibody
T1 construct: also called HEK - CD1c
measured.attribute: Fluorescence Intensity Geomean (normalized to background)

Before answering, review these 3 worked examples.
# binder, endpoint.result
measured = [
    ("111 (VR12113) (antibody, V domains shown, also called OX111) VH: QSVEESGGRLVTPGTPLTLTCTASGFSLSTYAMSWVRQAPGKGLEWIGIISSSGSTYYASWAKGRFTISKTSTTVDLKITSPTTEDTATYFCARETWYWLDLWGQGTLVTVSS VL: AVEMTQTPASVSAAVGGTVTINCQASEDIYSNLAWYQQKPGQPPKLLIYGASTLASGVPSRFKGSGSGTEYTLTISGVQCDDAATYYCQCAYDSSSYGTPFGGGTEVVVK", "1 fold over background"),
    ("110 (VR12112) (antibody, V domains shown, also called OX110; antibody 110) VH: QSVEESGGRLVTPGTPLTLTCTVSGFSLSSYAMIWVRQAPGKGLEWIGIINSSDNTHYATWAKGRFTISKTSTTVDLKITSPTTEDTATYFCARDPYDYGYGWYFDLWGPGTLVTVSS VL: AQVLTQTPSPVSAAVGGTVTINCQASQSVFNNKNLAWYQQKPGQPPKLLIYKASTLASGVSSRFKGSGSGTQFALTISGVQCDDAATYYCQGEFSCSSTDCVTFGGGTEVVVK", "1 fold over background"),
    ("77A (VR11851) (antibody, V domains shown, also called OX77a; antibody 77a) VH: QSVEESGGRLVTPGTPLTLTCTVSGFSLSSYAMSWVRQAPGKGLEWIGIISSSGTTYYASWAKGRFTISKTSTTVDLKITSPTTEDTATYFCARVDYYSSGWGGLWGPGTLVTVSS VL: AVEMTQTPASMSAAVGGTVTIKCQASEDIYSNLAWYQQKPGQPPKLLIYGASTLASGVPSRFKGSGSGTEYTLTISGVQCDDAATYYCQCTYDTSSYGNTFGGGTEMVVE", "0.9 fold over background"),
]

# next binder below
Notebook: 116 (VR12117) (antibody, V domains shown, also called OX116) VH: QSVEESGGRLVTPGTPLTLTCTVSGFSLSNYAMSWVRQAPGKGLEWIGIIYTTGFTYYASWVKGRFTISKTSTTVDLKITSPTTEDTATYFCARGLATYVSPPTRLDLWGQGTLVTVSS VL: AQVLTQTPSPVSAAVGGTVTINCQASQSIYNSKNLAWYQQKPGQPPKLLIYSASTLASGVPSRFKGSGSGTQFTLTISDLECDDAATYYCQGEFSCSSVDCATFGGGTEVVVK , Fluorescence Intensity Geomean (normalized to background) read as 1 fold over background
